# System: SR
# assay_info: NCI tumour cell line growth inhibition, 48 h
Active and inactive are the calls of the source. Rule as the data show it: active = GI50 up to about 1.1 µM and inactive = higher.
Write down the outcome that applies. Available outcomes: True (active), False (inactive)

Consider the following illustrative entries.
O=C(NCCCCCCNC(=O)n1cc(F)c(=O)[nH]c1=O)NCCCOCCOCCOCCOCCOCCOCCOCCOCCOCCOCCOCCOCCOCCOCCOCCOCCOCCOCCOCCOCCOCCCNC(=O)C(O)C(O)C(O)C(O)CO (stereo not given) | False
COc1ccc2c(c1)[C@@]13CCN4CC5=CCO[C@H]6CC(=O)N2[C@H]1[C@H]6[C@H]5C[C@H]43 | False
O=C(/N=C1\SCCN1C(=O)C(C(F)(F)F)C(F)(F)F)C(C(F)(F)F)C(F)(F)F | False
N#Cc1c(-c2ccc([N+](=O)[O-])cc2)cc(-c2ccc(Nc3ccnc4cc(C(F)(F)F)ccc34)cc2)[nH]c1=O | False
O=C1CC(C(=O)O)Cc2c(Br)ccc(O)c21 (stereo not given) | False
COc1ccc2c(C(=O)O)cc3cc(OC)c(OC)cc3c2c1 | False
Cc1ccc2c(c1)nc1n2C(c2c(F)cccc2F)SC1 (stereo not given) | False
COc1cccc2c1N[S@](=O)S2 | False
COc1cc2cc(C(=O)N3CC(CCl)c4ccc([N+](C)(C)Cc5ccc([N+](=O)[O-])cc5)cc43)[nH]c2c(OC)c1OC (stereo not given) | True
CCCC(=O)NC(Nc1ccc(F)cc1)(C(F)(F)F)C(F)(F)F | False

Could you please tell me the result logged for CSCCC(NOC(=O)Cc1ccccc1)P(=O)(O)c1ccccc1 (stereo not given) in this assay?
False

Could you please tell me the result logged for `COc1cc2c(c3c1C=CCO3)C(=O)c1ccccc1C2=O` in this assay?
False

Could you please tell me the result logged for `Cc1nnc(CC#N)n1NC(=O)CC#N` in this assay?
False

Could you please tell me the result logged for `c1ccc2[nH]c3nc4ccccc4c-3cc2c1` in this assay?
True

Could you please tell me the result logged for CC(C#N)c1cn(S(=O)(=O)c2ccccc2)c2ccccc12 (stereo not given) in this assay?
False

Could you please tell me the result logged for `COc1cc2c(cc1OC)C(=O)/C(=C/c1ccccc1)CC2` in this assay?
False

Could you please tell me the result logged for COc1ccc2c(c1)OCC1Cc3cccc(OC)c3OC21 (stereo not given) in this assay?
False

Could you please tell me the result logged for `Cc1c(C)c(S(=O)(=O)N(CCCCCN)OCCCN)c(C)c2c1OC(C)(C)CC2` in this assay?
False

Could you please tell me the result logged for `COc1cc2c(oc(=O)c3cc4cc([Si](C)(C)C)oc4c(OC)c32)c2cccc(O)c12` in this assay?
False

Could you please tell me the result logged for `O=c1cc(-c2ccc(O)cc2)n(C2CC2)c2ccccc12` in this assay?
False

----------
# Test system: HT-29
# assay_info: NCI tumour cell line growth inhibition, 48 h
Calls of active or inactive are those of the source. No stated cut-off is given here; in the data, active = GI50 up to about 1.1 µM and inactive = higher. Non-standard residues stand in square brackets, D forms with d. Residues, ends and D or L forms follow the SMILES beside them. ξ: configuration not given here. *: point of attachment. ξF = NC(Cc1ccccc1)C(=O)O; Cbz = O=C(OCc1ccccc1)*
property_measured: GI50

Recorded results for 6 compounds are shown here.
C1CN(c2nnc(N3CCC3)nn2)C1 | 35.6 µM (inactive)
COC(=O)c1cc2c(cc1Cl)Sc1nnc(Nc3ccccc3)n1S2(=O)=O | 2.4 µM (inactive)
COC(=O)C1=C([C@H]2COC(C)(C)O2)[C@H]2C[C@@H]1[C@@H]1OC(C)(C)O[C@@H]12 | > 100 µM (inactive)
O=C1C[C@@H]2[C@@H](CCC23CC3)N1 | > 100 µM (inactive)
CCOC(=O)CNC(=O)C(Cc1ccccc1)NC(=O)OCc1ccccc1 (stereo unspecified) (Cbz-[ξF]-Gly-OEt) | > 100 µM (inactive)
O=C(NCC(O)CNC(=O)C(F)(F)F)C(F)(F)F | > 100 µM (inactive)

Recorded GI50 of COc1ccc2c(c1)OCC1Cc3cccc(OC)c3OC21 (stereo unspecified) , please.
72.8 µM (inactive)

Recorded GI50 of `Nc1nc(Cl)c(Cl)c(NCC2(O)CCC2)n1` , please.
> 100 µM (inactive)

Recorded GI50 of `O=C1Sc2ccc(Br)cc2C(=O)Sc2ccccc21` , please.
14.3 µM (inactive)

Recorded GI50 of O=C1CC(C(=O)O)Cc2c(Br)ccc(O)c21 (stereo unspecified) , please.
> 100 µM (inactive)

Recorded GI50 of `Cc1cccc(Cn2c3c(c4cc(O)ccc42)C(=O)c2ccccc2C3=O)c1` , please.
> 58.5 µM (inactive)
